Quick reference for TGI among some compounds
- System: SK-BR-3
- Protocol description: Cytotoxicity against human SK-BR-3 cells assessed as reduction in cell viability incubated for 48 hrs by SRB assay
- Assay type: functional
Readout type: TGI (µM)

compound="NC[C@@H]1COC[C@](c2ccccc2)(C2CCCCC2)O1 (relative stereo)" op== result_number=180
compound=C[C@]12N[C@H](Cc3ccccc31)c1ccccc12 op=> result_number=300
compound="NCC1COCC(c2ccccc2)(c2ccccc2)O1 (racemic)" op== result_number=200
compound=CN[C@]1(c2ccccc2Cl)CCCCC1=O op=> result_number=300
compound="NC[C@H]1COC[C@](c2ccccc2)(C2CCCCC2)O1 (relative stereo)" op== result_number=192
